The measurements presented in this section are drawn from PubChem BioAssay AID1159580.

Experiment: chemical genetic growth profiling, strain panel (AID 1159580);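 note: tested at 20 µM; growth read once vehicle control cultures reached saturation at 30 °C; 1 = growth at the plate median or of vehicle wells; lower values mean less growth of the strain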
Details: S. cerevisiae deletion strains, growth OD, locus YLR262C, strain YPT6 (second series), hits give low values
Screen size: about 5,500 compounds; about 2,000 (36%) were called active. Inconclusive results (about 18%) are left out. Some of the results follow.
Parameter: normalized growth. Scope: all listed entries.
Answer as a number with no unit attached.

Below are worked cases with known answers.
COMPOUND	READOUT_NUMBER
c1ccc(CC2=NCCN2)cc1	1.03
CC(C)N(C(=O)CCl)c1ccccc1	1.14
O=C(O)c1ccccc1OP(=O)(O)O	0.995
COc1cccc([C@]2(O)CCCC[C@H]2CN(C)C)c1	0.962
CCC1(c2ccccc2)C(=O)NCNC1=O	1.03
COc1ccc(C2CC(=O)c3ccc(OC)cc3O2)cc1 (stereo not given)	0.912
COc1ccc2cc1Oc1ccc(cc1)C[C@H]1c3cc(c(OC)cc3CCN1C)Oc1c(OC)c(OC)cc3c1[C@H](C2)N(C)CC3	0.975
COc1ccc(-c2coc3c(O)c(OC)ccc3c2=O)cc1	0.736
O=c1ccc2cc(O)c(O)cc2o1	1.05
Cc1cccc(Nc2cc(Cl)nc(SCC(=O)O)n2)c1C	0.962

QUERY: What value of normalized growth has been reported for the following compound? COc1ccc(-c2cc(=O)c3c(O)cc(OC)c(OC)c3o2)c(OC)c1
RESULT: 0.907

QUERY: What value of normalized growth has been reported for the following compound? S=C=NCc1ccccc1
RESULT: 0.338

QUERY: What value of normalized growth has been reported for the following compound? Cc1ccc2c(c1)CC[C@H]1CC(=O)CC[C@]21C
RESULT: 0.942

----------
Assay: chemical genetic growth profiling, strain panel (AID 1159580)
Settings: S. cerevisiae deletion strains, growth OD, locus YNL071W, strain lat1, hits give low values
The whole screen tested about 5,500 compounds, of which about 2,000 (36%) were called active. Another 18% or so got no clear call; they are omitted. Some of the results follow.
READOUT_NAME: normalized growth
Answer as a number with no unit attached.

Below are worked cases with known answers.
COMPOUND	normalized growth
CCC1(c2ccccc2)C(=O)NCNC1=O	1
CN=C(NC#N)NCCSCc1nc(N=C(N)N)cs1	0.977
C[N+](C)(C)CC(=O)[O-]	0.989
N=c1nc(N2CCCCC2)cc(N)n1O	0.991
CNc1ccccc1C(=O)N1CCc2c([nH]c3ccccc23)C1=O	0.993
COC(=O)C1[C@H]2C[C@H]3c4[nH]c5ccccc5c4CCN3C[C@@H]2CC[C@@H]1O (some centres not stated)	0.976
CC(C)[C@H](N)C(=O)OCCOCn1cnc2c(=O)[nH]c(N)nc21	1.02
Cc1c(N(C)C)c(=O)n(-c2ccccc2)n1C	1

Turning now to a further record.
QUERY: What value of normalized growth has been reported for the following compound? OCC(O)Cc1ccc2c(c1)OCO2 (configuration not stated)
RESULT: 1.01

----------
Assay: chemical genetic growth profiling, strain panel (AID 1159580)
Conditions: S. cerevisiae deletion strains, growth OD, locus YNL248C, strain rpa49, hits give low values
Among all 5,500 compounds or so, about 2,000 (36%) were called active. Another 18% or so got no clear call; they are omitted. The list shows a part of the results.
READOUT_NAME: normalized growth

Below are worked cases with known answers.
MOLECULE	normalized growth
CC(C)[N+](C)(CCOC(=O)C1c2ccccc2Oc2ccccc21)C(C)C	1.04 (inactive)
CCCCCC(=O)O[C@]1(C(C)=O)CCC2C3CCC4=CC(=O)CC[C@]4(C)C3CC[C@@]21C (some centres not stated)	1 (inactive)
O=C(O)c1cc(=O)c2ccc(Cl)cc2[nH]1	1.08 (inactive)
NC(N)=NOCC[C@H](N)C(=O)O	1.02 (inactive)
CC1(C)C2CC[C@]3(C)C(C(=O)C=C4[C@@H]5C[C@@](C)(C(=O)O)CC[C@]5(C)CC[C@]43C)[C@@]2(C)CC[C@@H]1O (some centres not stated)	1.01 (inactive)

QUERY: What value of normalized growth has been reported for the following molecule? CC(=O)[C@H]1CCC2C3C[C@H](C)C4=CC(=O)CC[C@]4(C)C3[C@@H](O)C[C@@]21C (some centres not stated)
RESULT: 0.985 (inactive)

----------
Test: chemical genetic growth profiling, strain panel (AID 1159580);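 note: tested at 20 µM; growth read once vehicle control cultures reached saturation at 30 °C; 1 = growth at the plate median or of vehicle wells; lower values mean less growth of the strain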
Details: S. cerevisiae deletion strains, growth OD, locus YGL248W, strain PDE1, hits give low values
About 2,000 (36%) of roughly 5,500 compounds were called active. Another 18% or so got no clear call; they are omitted. The list shows a part of the results.
READOUT_NAME: normalized growth
Answer as a number with no unit attached.

SMI	normalized growth
COc1ccc(-c2coc3c(OC)c(OC)cc(OC)c3c2=O)cc1	0.979
O=C1C[C@@H](c2ccccc2)Oc2cc(O)cc(O)c21	0.884
COc1ccc([C@@H]2CC(=O)c3c(O)cc(O)cc3O2)cc1O	1.01
COc1ccc(-c2coc3c(O)c(OC)ccc3c2=O)cc1	0.906

QUERY: What value of normalized growth has been reported for the following compound? COc1ccc(-c2coc3c(OC)c(O)ccc3c2=O)cc1
RESULT: 0.927

----------
Assay: chemical genetic growth profiling, strain panel (AID 1159580);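 note: tested at 20 µM; growth read once vehicle control cultures reached saturation at 30 °C; 1 = growth at the plate median or of vehicle wells; lower values mean less growth of the strain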
Conditions: S. cerevisiae deletion strains, growth OD, locus YHR027C, strain rpn1, hits give low values
Screen size: about 5,500 compounds; about 2,000 (36%) were called active. Roughly 18% stayed inconclusive and do not appear here. The list shows a part of the results.
READOUT_NAME: normalized growth
Answer as a number with no unit attached.

Below are worked cases with known answers.
MOLECULE	normalized growth
CC(=O)O[C@@](C)(CCC=C(C)C)C1CC=C(C)CC1 (stereo partly specified)	0.983
CC[C@H]1OC(=O)C[C@@H](O)[C@H](C)[C@@H](O[C@@H]2O[C@H](C)[C@@H](O[C@H]3C[C@@](C)(O)[C@@H](O)[C@H](C)O3)[C@H](N(C)C)[C@H]2O)[C@@H](CC=O)C[C@@H](C)C(=O)/C=C/C(C)=C/[C@@H]1CO[C@@H]1O[C@H](C)[C@@H](O)[C@@H](OC)[C@H]1OC	0.995
CC(C)(C)CC(C)(C)c1ccc(OCCOCC[N+](C)(C)Cc2ccccc2)cc1	0.0623
COc1cc2c(cc1OC)C(=O)C(CC1CCN(Cc3ccccc3)CC1)C2 (stereo unspecified)	0.99
Cc1cc(C(C)(C)CC(C)(C)C)ccc1OCCOCC[N+](C)(C)Cc1ccccc1	0.0592

Turning now to a further record.
QUERY: What value of normalized growth has been reported for the following molecule? CCCCCCCCCCCCC[N+](C)(C)Cc1ccccc1
RESULT: 0.0626

----------
Experiment: chemical genetic growth profiling, strain panel (AID 1159580);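 note: tested at 20 µM; growth read once vehicle control cultures reached saturation at 30 °C; 1 = growth at the plate median or of vehicle wells; lower values mean less growth of the strain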
Settings: S. cerevisiae deletion strains, growth OD, locus YER155C, strain BEM2, hits give low values
In all, about 5,500 compounds went through this assay and about 2,000 (36%) were called active. Not shown: some 18% with an inconclusive outcome. Some of the results follow.
READOUT_NAME: normalized growth
Answer as a number with no unit attached.

Below are worked cases with known answers.
COMPOUND	READOUT_NUMBER
S=C=NCc1ccccc1	0.0627
CC1(C)C2CC[C@]3(C)C(C(=O)C=C4[C@@H]5C[C@@](C)(C(=O)O)CC[C@]5(C)CC[C@]43C)[C@@]2(C)CC[C@@H]1OC(=O)CCC(=O)O (stereo partly specified)	1
COC(=O)COc1cc(Cl)c(Cl)cc1Cl	0.983
CN1CCc2cc3c(cc2C1O)OCO3 (stereo unspecified)	0.984
NC(N)=Nc1nc(CSCCC(N)=NS(N)(=O)=O)cs1	1

QUERY: What value of normalized growth has been reported for the following compound? C[C@@H]1O[C@@H](O[C@H]2[C@@H](Oc3cc(O)c4c(c3)O[C@H](c3ccc(O)cc3)CC4=O)O[C@H](CO)[C@@H](O)[C@@H]2O)[C@H](O)[C@H](O)[C@H]1O
RESULT: 1.01

QUERY: What value of normalized growth has been reported for the following compound? COC(=O)COc1ccc(Cl)cc1Cl
RESULT: 1

QUERY: What value of normalized growth has been reported for the following compound? CC1(C)S[C@@H]2[C@H](NC(=O)[C@H](NC(=O)N3CCNC3=O)c3ccccc3)C(=O)N2C1C(=O)O (stereo partly specified)
RESULT: 1.01

QUERY: What value of normalized growth has been reported for the following compound? NC(N)=NOCC[C@H](N)C(=O)O
RESULT: 0.978

QUERY: What value of normalized growth has been reported for the following compound? COc1cc(OC)c2c(c1)OC(c1ccccc1)CC2=O (stereo unspecified)
RESULT: 0.996

QUERY: What value of normalized growth has been reported for the following compound? CN1Cc2c(ccc3c2OCO3)C2C(O)Cc3cc4c(cc3C21)OCO4 (stereo unspecified)
RESULT: 0.997
